Let's look at some pKi data for Histamine H3 receptor (Rattus norvegicus, UniProt Q9QYN8) that I collected from the literature.
pKi: −log10 of the molar value.
assay-endpoint: pKi

structure-notation: O=C(N1CCOCC1)N1CCC(Oc2ccc3c(c2)CCN(C2CCC2)CC3)CC1
recorded-result: 7.90

structure-notation: CN(C)CCCNc1c2c(nc3ccccc13)CCCCC2
recorded-result: 7.66

structure-notation: C[C@@H]1CCCN1CCCOc1ccc(-c2ccc(=O)n(-c3ccccn3)n2)cc1
recorded-result: 7.66

structure-notation: C[C@@H](NC(=O)CC1CCCC1)C(=O)N1CCN(CCCOc2ccc(-c3noc(-c4ccccc4)n3)c(F)c2)CC1
recorded-result: 7.68

structure-notation: COC(=O)N1CCN(CC(=O)c2ccc(OCCCN3CCC[C@H]3C)cc2)CC1
recorded-result: 7.72

* * *

This section presents Ki values reported for Histamine H3 receptor (Rattus norvegicus, UniProt Q9QYN8) in the literature.

structure-notation: COc1cn[nH]c(=O)c1-c1ccc(OCCCN2CCC[C@H]2C)cc1
Ki: 62 nM
//
structure-notation: C[C@@H]1CCCN1CCCOc1c(F)cc(-c2ccc(=O)n(C)n2)cc1F
Ki: 41 nM
//
structure-notation: CC[C@]12CC[C@@H]3c4ccc(OCCCN5CCCC5)cc4CC[C@H]3[C@@H]1CC[C@@H]2N1CCCC1
Ki: 16.6 nM
//
structure-notation: C[C@@H]1CCCN1CCCOc1cccc(-c2ccc(=O)n(C)c2)c1
Ki: > 500 nM
//
structure-notation: CN(CCO)CCc1ccc2cc(-c3ccc(C#N)cc3)ccc2c1
Ki: 457 nM
//
structure-notation: C[C@@H]1CCCN1CCCOc1ccc(C(=O)CN2CCC(F)(F)C2)cc1
Ki: 21 nM
//
structure-notation: CC(C)(C)OC[C@@H](N)C(=O)N1CCN(CCCOc2ccc(C(=O)C3CC3)cc2)CC1
Ki: 8.51 nM
//
structure-notation: C[C@]12CC[C@@H]3c4ccc(OCc5ccncc5)cc4CC[C@H]3[C@@H]1CC[C@@H]2N1CCCC1
Ki: 7.3 nM
